The following molecules are listed with their measured log10 of IC50 values.
molecular target: KRAS (aa 1-169) G12C, C51S, C80L, C118S (Homo sapiens (Human), UniProt P01116, C118S/C51S/C80L/G12C); experiment: Biochemical functional assay: SOS1-mediated nucleotide exchange of GDP-loaded KRAS G12C, binding to GST-cRaf RBD, FRET readout; conditions: 3 hrs pre-incubation with compound at 24° C., SOS1, GTPyS, inhibition of nucleotide exchange
Sequence (P01116 other isoform, or with tags, fused parts or gaps G12C/C51S/C80L/C118S): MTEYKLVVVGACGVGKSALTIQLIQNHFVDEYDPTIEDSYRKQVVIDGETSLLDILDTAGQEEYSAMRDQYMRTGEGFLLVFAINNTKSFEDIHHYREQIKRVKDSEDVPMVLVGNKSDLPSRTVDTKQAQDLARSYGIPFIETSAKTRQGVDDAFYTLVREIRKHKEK
Give log10 of IC50, with IC50 taken in nM.

Query: Can you look up the measured log10 of IC50 of C=C(F)C(=O)N1CCN(c2nc(OC[C@@H]3CCCN3C)nc3cc(-c4cccc5cccc(Cl)c45)c4c(c23)OCCC4)C[C@@H]1CC#N (single isomer, unassigned) [Compound B67] for me?
Result: 0.66

Query: Look up log10 of IC50 for this molecule: `C=C(F)C(=O)N1CCN(c2nc(OC[C@@H]3CCCN3C)nc3cc(-c4cccc5cccc(C)c45)c4c(c23)OCCC4)C[C@@H]1CC#N`
Result: 1.11

Query: May I ask what log10 of IC50 has been recorded for `C=CC(=O)N1CCN(c2nc(OC[C@@H]3CCCN3C)nc3cc(-c4c(Cl)c(C)cc5[nH]ncc45)c4c(c23)OCCC4)C[C@@H]1CC#N` ?
Result: 0.48

Query: Which log10 of IC50 value belongs to `C=CC(=O)N1CCN(c2ncnc3cc(-c4c(C)cccc4F)c4c(c23)OCCC4)C[C@@H]1CC#N` ?
Result: 2.37

Continuing:
Query: Which log10 of IC50 value is on record for `C=C(F)C(=O)N1CCN(c2nc(O[C@@H]3CCCC[C@H]3N(C)C)nc3cc(-c4cccc5cccc(Cl)c45)c4c(c23)OCCC4)C[C@@H]1CC#N` ?
Result: 2.27

Query: Look up log10 of IC50 for this molecule: `C=CC(=O)N1CCN(c2ncnc3cc(-c4c(F)cccc4F)c4c(c23)OCCC4)C[C@@H]1CC#N`
Result: 3.32

Query: Any idea what log10 of IC50 was measured for `C=CC(=O)N1CCN(c2nc(OC[C@@H]3CCCN3C)nc3cc(-c4ccccc4C4CC4)c4ccoc4c23)CC1` ?
Result: 2.98

Query: May I ask what log10 of IC50 has been recorded for `C=CC(=O)N1CCN(c2nc(OC[C@@H]3CCCN3C)nc3cc(-c4c(Cl)cccc4Cl)c4ccoc4c23)CC1` ?
Result: 2.87

Query: Look up log10 of IC50: `C=C(F)C(=O)N1CCN(c2nc(O[C@@H]3CCN(C)C3)nc3cc(-c4cccc5cccc(Cl)c45)c4c(c23)OCCC4)C[C@@H]1CC#N`
Result: 2.48

Query: Fill in: log10 of IC50 of `C=CC(=O)N1CCN(c2ncnc3cc(-c4cc(C)cc5[nH]ncc45)c4c(c23)OCCC4)C[C@@H]1CC#N` is ___
Result: 2.90

Query: Which measured log10 of IC50 value corresponds to C=CC(=O)N1CCN(c2nc(OC3CCCC3N(C)C)nc3cc(-c4cccc5cccc(Cl)c45)c4c(c23)OCCC4)C[C@@H]1CC#N (stereo partly shown) ?
Result: 1.15

Query: Look up log10 of IC50: `C=CC(=O)N1CCN(c2ncnc3cc(-c4cccc5ccccc45)c4c(c23)OCCC4)CC1`
Result: 3.22

Query: For `C=CC(=O)N1CCN(c2ncnc3cc(-c4c(Cl)c(F)cc5[nH]ncc45)c4c(c23)OCCC4)CC1` , what is its reported log10 of IC50?
Result: 2.84

Query: Record request: log10 of IC50 value, item `C=CC(=O)N1CCN(c2nc(OC[C@@H]3CCCN3C)nc3cc(-c4c(Cl)c(C)cc5[nH]ncc45)c4c(c23)OCCC4)CC1`
Result: 1.53

Query: Using the record for `C=C(F)C(=O)N1CCN(c2nc(OC[C@@H]3CCCN3C)nc3cc(-c4ccccc4F)c4ccoc4c23)CC1` , report its log10 of IC50.
Result: 3.80

Query: Can you share its log10 of IC50? I mean this molecule: `C=C(F)C(=O)N1CCN(c2nc(OC[C@@H]3CCCN3C)nc3cc(-c4c(F)cccc4F)c4ccoc4c23)C[C@@H]1CC#N`
Result: 2.96

Query: Form field: reported log10 of IC50 of `C=CC(=O)N1CCN(c2nc(OC[C@@H]3CCCN3C)nc3cc(-c4cccc5cccc(Cl)c45)c4c(c23)OCCC4)C[C@@H]1CC#N`
Result: 0.79

Query: Would you kindly share the measured log10 of IC50 for `C=C(F)C(=O)N1CCN(c2nc(N3CC(N(C)C)C3)nc3cc(-c4c(O)cccc4F)c4c(c23)OCCC4)C[C@@H]1CC#N` ?
Result: 2.41

Query: Can you look up the measured log10 of IC50 of `C=C(F)C(=O)N1CCN(c2nc(OC[C@@H]3C[C@H](F)CN3C)nc3cc(-c4cccc5cccc(Cl)c45)c4c(c23)OCCC4)C[C@@H]1CC#N` for me?
Result: 1.60

Query: Requested read-out: log10 of IC50. Entry: `C=C(F)C(=O)N1CCN(c2nc(N3CC(CF)(N(C)C)C3)nc3cc(-c4cccc5cccc(Cl)c45)c4c(c23)OCCC4)C[C@@H]1CC#N`
Result: 1.96

Query: Dear colleague, I am looking for the recorded log10 of IC50 of the following molecule: `C=C(F)C(=O)N1CCN(c2nc(OC[C@@H]3CCCN3C)nc3cc(-c4ccc(F)c5sc(N)nc45)c4c(c23)OCCC4)C[C@@H]1CC#N`
Result: 0.65

Query: Which value of log10 of IC50 has been reported for C=C(F)C(=O)N1CCN(c2nc(OC[C@@H]3CCCN3C)nc3cc(-c4cccc5cccc(Cl)c45)c4c(c23)OCCC4)C[C@@H]1CC#N [Compound B66] in the records?
Result: 0.97

Query: // log10 of IC50 lookup, key: `C=CC(=O)N1CCN(c2nc(N3CC(N(C)C)C3)nc3cc(-c4ccccc4C(F)(F)F)c4ccoc4c23)CC1`
Result: 3.23

Query: State the recorded log10 of IC50 for this entry: `C=C(F)C(=O)N1CCN(c2nc(OC[C@@H]3CCCN3C)nc3cc(-c4cccc(Cl)c4C(F)(F)F)c4c(c23)OCCC4)C[C@@H]1CC#N`
Result: 0.84

Query: Endpoint output: log10 of IC50 of `C=CC(=O)N1CCN(c2nc(OC[C@@H]3C[C@@H](F)CN3C)nc3cc(-c4c(Cl)c(C)cc5[nH]ncc45)c4c(c23)OCCC4)CC1` . Value?
Result: 2.03

Provenance of the data: patent US20240166660A1
